System: NCI-H460
Assay: Cytotoxicity against human NCI-H460 cells assessed as reduction in cell viability after 96 hrs by MTT assay
Assay type: cell-based
Settings: NCI-H460, 96 h
IC50 for assorted compounds
Provide only the numeric value, understood in µM.

INSERT INTO assay_data (smiles_representation, tgt, measured_number) VALUES
  ('CC(=O)O[C@H]1C(=O)[C@@]2(C)[C@H]([C@H](OC(=O)c3ccccc3)[C@]3(O)C[C@H](OC(=O)[C@H](O)[C@@H](NC(=O)c4ccccc4)c4ccccc4)C(C)=C1C3(C)C)[C@]1(OC(C)=O)CO[C@@H]1C[C@@H]2O', 'NCI-H460', 0.001);

Alright, here's another compound for you.
Query: Tell me the measured IC50 of Cc1cc(O)c2c(c1C=O)O[C@]1(C2)[C@H](C)CC[C@H]2C(C)(C)[C@H](O)CC[C@@]21C , please.
Result: 15.8
